System: phospho(Ser63)-c-jun in HK-2 cells
Test: Cell-based assay for JNK inhibitors: in-cell ELISA of TNFα-stimulated phospho(Ser63)-c-jun in HK-2 cells
Conditions: Homo sapiens, 10 ng/mL TNFα, 60 min preincubation with compound
pEC50: −log10 of the molar value.
attribute-measured: pEC50

compound	attribute-measured	recorded-value
COC(=O)c1c(Cc2ccc(C(=O)N[C@@H]3[C@@H]4C[C@@H]5C[C@H]3C[C@@](O)(C5)C4)cc2)c(=O)c2ccc(Cl)cc2n1-c1ccccc1 [Compound I-3]	pEC50	5.24

(P) COC(=O)c1c(Cc2ccc(C(=O)N[C@@H]3[C@@H]4C[C@@H]5C[C@H]3C[C@@](O)(C5)C4)cc2F)c(=O)c2cccnc2n1-c1ccccc1 [Compound I-24]
(Q) COC(=O)c1c(Cc2ccc(C(=O)N[C@@H]3[C@@H]4C[C@@H]5C[C@H]3C[C@@](O)(C5)C4)cc2)c(=O)c2ccc(C(F)(F)F)nc2n1-c1ccccc1 [Compound I-25]
Select one. Lower pEC50: P or Q Return value: the label identifying the chosen record.
P
(P: 5.07, Q: 5.44)

Measured values drawn from patent US8471027B2 for this set.
